The reported numbers originate from ChEMBL document CHEMBL3102734.

# experimental.system: UniProt:P08170
# method.notes: Uncompetitive inhibition of soybean LOX-1 using linoleic acid as substrate preincubated for 5 mins followed by substrate addition by Lineweaver-Burk plot analysis
Field: Ki. Provide a value for each of the compounds that follow.
Answers are plain numbers, in µM.

compound	Ki, µM
O=c1cc(-c2cccc(O)c2)oc2cc(O)cc(O)c12	95.4

Consider the following items and state reported Ki for each.
1. O=c1cc(-c2ccc(O)c(O)c2)oc2cc(O)cc(O)c12 [LUTEOLIN]
2. O=c1cc(-c2ccc(O)c(O)c2)oc2cccc(O)c12

122
18

###

# experimental.system: Polyunsaturated fatty acid 5-lipoxygenase (Homo sapiens) (UniProt P09917)
# Sequence (P09917 whole entry): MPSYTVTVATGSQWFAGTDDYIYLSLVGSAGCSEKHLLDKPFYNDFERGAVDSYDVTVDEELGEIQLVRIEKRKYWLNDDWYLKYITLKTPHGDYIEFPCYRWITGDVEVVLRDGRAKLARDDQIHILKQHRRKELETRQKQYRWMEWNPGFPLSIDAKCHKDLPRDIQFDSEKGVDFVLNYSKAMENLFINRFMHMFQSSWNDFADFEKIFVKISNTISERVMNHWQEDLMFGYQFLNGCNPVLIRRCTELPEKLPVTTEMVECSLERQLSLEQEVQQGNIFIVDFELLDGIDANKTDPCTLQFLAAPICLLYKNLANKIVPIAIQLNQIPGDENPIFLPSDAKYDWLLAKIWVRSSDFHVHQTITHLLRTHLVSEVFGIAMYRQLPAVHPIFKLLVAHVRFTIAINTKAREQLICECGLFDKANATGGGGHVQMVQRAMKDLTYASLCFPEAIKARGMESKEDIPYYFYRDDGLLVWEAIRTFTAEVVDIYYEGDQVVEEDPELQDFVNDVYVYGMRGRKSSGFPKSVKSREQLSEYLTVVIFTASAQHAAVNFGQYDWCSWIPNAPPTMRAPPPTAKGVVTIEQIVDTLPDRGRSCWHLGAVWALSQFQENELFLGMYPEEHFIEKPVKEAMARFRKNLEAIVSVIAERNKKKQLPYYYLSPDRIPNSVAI
# method.notes: Inhibition of 5-LOX-mediated LTB4 production in human neutrophils using arachidonic acid as substrate at 40 uM preincubated for 10 mins followed by substrate addition measured after 8 mins by enzyme immunoassay relative to control
Field: inhibition. Provide a value for each of the molecules that follow.

Consider the following items and state reported inhibition for each.
1. O=c1cc(-c2ccccc2)oc2cc(O)ccc12
2. O=c1cc(-c2ccc(O)cc2)oc2cc(O)ccc12

["53.1%", "< 50%"]

Consider the following items and state reported inhibition for each.
1. O=C1CC(c2ccc(O)c(O)c2)Oc2cc(O)cc(O)c21 (racemic)
2. O=c1cc(-c2cccc(O)c2)oc2cc(O)ccc12
3. O=c1cc(-c2ccc(O)cc2)oc2cccc(O)c12
4. O=C1CC(c2ccc(O)cc2)Oc2cc(O)cc(O)c21 (racemic)
5. O=c1cc(-c2ccccc2)oc2ccccc12

["53.4%", "51.4%", "29.8%", "< 50%", "< 50%"]

Consider the following items and state reported inhibition for each.
1. COc1cc(-c2cc(=O)c3c(O)cc(O)cc3o2)ccc1O
2. O=c1cc(-c2cccc(O)c2)oc2cc(O)cc(O)c12
3. O=c1cc(-c2ccccc2)oc2cc(O)cc(O)c12 [CHRYSIN]

1. < 50%
2. 52%
3. < 50%

###

# experimental.system: Polyunsaturated fatty acid 5-lipoxygenase (Homo sapiens)
# Sequence (P09917 whole entry): as above
# method.notes: Inhibition of 5-LOX-mediated LTB4 production in human neutrophils using arachidonic acid as substrate preincubated for 10 mins followed by substrate addition measured after 8 mins by enzyme immunoassay
measured.attribute: IC50 (nM)
One number for each entry, in nM.

Consider the following items and state reported IC50 for each.
1. O=c1cc(-c2ccc(O)c(O)c2)oc2cc(O)cc(O)c12 [LUTEOLIN]
2. O=c1cc(-c2ccc(O)c(O)c2)oc2cc(O)ccc12
3. O=c1cc(-c2ccc(O)c(O)c2)oc2ccccc12
4. O=c1cc(-c2ccc(O)c(O)c2)oc2cccc(O)c12

1: 1600; 2: 2000; 3: 1700; 4: 2900

###

# experimental.system: Seed linoleate 13S-lipoxygenase-1 (Glycine max)
# Sequence (P08170 whole entry): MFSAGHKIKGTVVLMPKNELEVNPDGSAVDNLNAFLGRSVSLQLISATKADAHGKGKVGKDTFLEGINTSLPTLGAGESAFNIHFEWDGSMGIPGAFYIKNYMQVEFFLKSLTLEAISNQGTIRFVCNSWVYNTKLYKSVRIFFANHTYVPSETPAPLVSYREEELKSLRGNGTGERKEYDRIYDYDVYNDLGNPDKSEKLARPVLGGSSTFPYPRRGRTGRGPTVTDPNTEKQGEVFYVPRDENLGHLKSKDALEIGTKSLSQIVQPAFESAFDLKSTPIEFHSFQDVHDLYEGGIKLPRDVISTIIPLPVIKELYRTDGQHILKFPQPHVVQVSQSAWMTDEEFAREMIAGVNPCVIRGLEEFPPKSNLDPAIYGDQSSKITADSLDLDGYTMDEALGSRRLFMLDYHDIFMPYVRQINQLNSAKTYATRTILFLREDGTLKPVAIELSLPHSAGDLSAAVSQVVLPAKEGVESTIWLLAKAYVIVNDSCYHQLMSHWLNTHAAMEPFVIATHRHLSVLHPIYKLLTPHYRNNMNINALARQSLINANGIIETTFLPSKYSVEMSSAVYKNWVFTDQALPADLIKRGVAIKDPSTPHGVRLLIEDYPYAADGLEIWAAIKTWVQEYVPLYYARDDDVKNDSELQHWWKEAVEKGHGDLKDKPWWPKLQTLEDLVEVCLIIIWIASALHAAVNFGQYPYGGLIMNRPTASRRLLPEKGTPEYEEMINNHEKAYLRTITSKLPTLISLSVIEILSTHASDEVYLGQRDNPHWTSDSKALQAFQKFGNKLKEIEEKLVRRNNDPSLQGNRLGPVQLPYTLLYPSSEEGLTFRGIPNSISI
# method.notes: Mixed noncompetitive type inhibition of soybean LOX-1 using linoleic acid as substrate preincubated for 5 mins followed by substrate addition by Lineweaver-Burk plot analysis
measured.attribute: pKi
Numbers only, as −log10 of the molar value.

Completed entries (count: 3):
compound.structure	measured.attribute	measured.number
O=c1cc(-c2ccc(O)cc2)oc2cc(O)cc(O)c12	pKi	3.75
O=c1cc(-c2ccccc2)oc2cc(O)cc(O)c12	pKi	4.71
O=c1cc(-c2ccc(O)c(O)c2)oc2ccccc12	pKi	4.07

Next compound, please.
Find the measured pKi of O=c1cc(-c2ccc(O)cc2)oc2cccc(O)c12 and report it.
3.99

###

Field: inhibition. Provide a value for each of the compounds that follow.
# experimental.system: Polyunsaturated fatty acid 5-lipoxygenase (Homo sapiens) (UniProt P09917)
# method.notes: Inhibition of 5-LOX-mediated LTB4 production in human neutrophils using arachidonic acid as substrate at 40 uM preincubated for 10 mins followed by substrate addition measured after 8 mins by enzyme immunoassay relative to control

Consider the following items and state reported inhibition for each.
1. O=c1cc(-c2ccc(O)cc2)oc2ccccc12
2. O=c1cc(-c2ccc(O)cc2)oc2cc(O)cc(O)c12
3. O=c1cc(-c2cccc(O)c2)oc2cccc(O)c12
4. O=c1cc(-c2cccc(O)c2)oc2ccccc12
5. COc1ccc(-c2cc(=O)c3c(O)cc(O)cc3o2)cc1OC
6. O=C1c2c(O)cc(O)cc2O[C@H](c2ccc(O)c(O)c2)[C@H]1O

1: 38.4%; 2: < 50%; 3: < 50%; 4: < 50%; 5: < 50%; 6: 19.9%
